All figures here come from paper PMC5841303.

tested.system: R419A norovirus RdRp (Norovirus GII.4 (Norwalk virus, human norovirus), UniProt K4L8Z7, R1608A)
test.method.notes: Fluorescent RdRp assay, R419A mutant RdRp
Assay type: biochemical
condition.context: 0.1–100 µM
Procedure: Given the evidence of 54 being a site-B binding NNI, residues Q414 and R419 were mutated to alanine. […] Fluorescent RdRp activity assays were carried out as previously described[14],[62]. Briefly, RdRp activity was quantified by monitoring the formation of double-stranded RNA (dsRNA) from a single stranded homopolymeric template, poly(C) (Sigma Aldrich, St Louis, MO, USA), using the fluorescent dye PicoGreen (Life Technologies, Carlsbad, CA, USA). […]
measurement.kind: IC50 (µM)

molecule="O=C1NN(c2ccccc2)C(=O)/C1=C/c1ccc(-c2ccc(S(=O)(=O)Nc3ccccc3)cc2)o1 [Compound 54]" endpoint_value=10.2

----------
tested.system: human norovirus Sydney 2012 RdRp (Norovirus GII.4 (Norwalk virus, human norovirus), UniProt K4L8Z7)
test.method.notes: Fluorescent de novo RdRp activity assay (PicoGreen, poly(C) template)
Type: biochemical
condition.context: read-out: inhibition of human norovirus RdRp activity, 100 µM; initial screen of purchased compounds
Catalogue of inhibition at 100 µM readings, one per entry.
measurement.kind: inhibition at 100 µM

compound="COc1ccc(N2C(=O)c3ccc(C(=O)O)cc3C2=O)cc1NC(=O)c1ccccc1 [Compound 9]" endpoint_value="> 50%"
compound="Cc1cc(C(=O)O)ccc1-c1ccc(/C=C2\\SC(=O)N(CC(=O)N3CCOCC3)C2=O)o1 [Compound 13]" endpoint_value="> 50%"
compound="Cc1ccc(NC(=O)CSc2n[nH]c(-c3ccccc3O)n2)c(C)c1 [Compound 10]" endpoint_value="> 25%"

----------
tested.system: human norovirus Sydney 2012 RdRp (Norovirus GII.4 (Norwalk virus, human norovirus), UniProt K4L8Z7)
test.method.notes: Fluorescent de novo RdRp activity assay (PicoGreen, poly(C) template)
Format: biochemical
Description: The 62 compounds identified in silico were screened for inhibition of norovirus RdRp activity using an in vitro fluorescent, de novo RdRp assay. […] For certain compounds, significant insolubility was observed, coupled with either inherent fluorescence quenching (positive y-axis values on Fig. 4A,B) or enhancement of the fluorescence signal (negative y-axis values). […]
pIC50: −log10 of the molar value.
Catalogue of pIC50 readings, one per entry.
measurement.kind: pIC50

molecule=Cc1cc(C(=O)O)ccc1-c1ccc(/C=C2\SC(=O)N(CC(=O)N3CCOCC3)C2=O)o1 endpoint_value=4.82
molecule="O=C(CN1C(=O)S/C(=C\\c2ccc(-c3ccccc3)o2)C1=O)Nc1ccccc1 [Compound 42a]" endpoint_value=4.56
molecule=O=C1NN(c2ccccc2)C(=O)/C1=C/c1ccc(-c2ccc(S(=O)(=O)Nc3ccccc3)cc2)o1 endpoint_value=5.25
molecule=Cc1ccc(N2NC(=O)C(=Cc3ccc(-c4ccc(S(=O)(=O)Nc5nccs5)cc4)o3)C2=O)cc1 endpoint_value=5.30

----------
tested.system: human norovirus Sydney 2012 RdRp (Norovirus GII.4 (Norwalk virus, human norovirus))
test.method.notes: Fluorescent de novo RdRp activity assay (PicoGreen, poly(C) template)
Type: biochemical
condition.context: read-out: inhibition of norovirus Sydney 2012 RdRp activity, 10 µM; secondary screen of newly synthesised compounds
Catalogue of inhibition at 10 µM readings, one per entry.
measurement.kind: inhibition at 10 µM (%)

compound="COC(=O)c1ccc(-c2ccc(/C=C3\\SC(=O)N(CC(=O)N4CCCCC4)C3=O)o2)c(C)c1 [Compound 24d]" measurement_kind="inhibition at 10 µM" relational_operator== endpoint_value=25
compound=Cc1cc(C(=O)O)ccc1-c1ccc(/C=C2\SC(=O)N(CC(=O)N3CCOCC3)C2=O)o1 measurement_kind="inhibition at 10 µM" relational_operator== endpoint_value=25
compound="COC(=O)c1ccc(-c2ccc(/C=C3\\SC(=O)N(CC(=O)Nc4ccccc4)C3=O)o2)cc1 [Compound 42b]" measurement_kind="inhibition at 10 µM" relational_operator=> endpoint_value=50
compound="COC(=O)c1ccc(-c2ccc(/C=C3\\SC(=O)N(CC(=O)N4CCCCC4)C3=O)o2)cc1 [Compound 24b]" measurement_kind="inhibition at 10 µM" relational_operator== endpoint_value=60

----------
test.method.notes: CellTitre Blue cell viability (cytotoxicity) assay
Assay type: cell-based
condition.context: mouse, RAW264.7 mouse macrophage cells, 0.5–100 µM, read-out: CC50 (half maximal cytotoxic concentration)
measurement.kind: CC50 (µM)

chemical_string=O=C1NN(c2ccccc2)C(=O)/C1=C/c1ccc(-c2ccc(S(=O)(=O)Nc3ccccc3)cc2)o1 result_units=µM endpoint_value=62.8
